Biological target: T1, mouse PAI-1 (mouse, UniProt P22777 24-401)
T1 sequence: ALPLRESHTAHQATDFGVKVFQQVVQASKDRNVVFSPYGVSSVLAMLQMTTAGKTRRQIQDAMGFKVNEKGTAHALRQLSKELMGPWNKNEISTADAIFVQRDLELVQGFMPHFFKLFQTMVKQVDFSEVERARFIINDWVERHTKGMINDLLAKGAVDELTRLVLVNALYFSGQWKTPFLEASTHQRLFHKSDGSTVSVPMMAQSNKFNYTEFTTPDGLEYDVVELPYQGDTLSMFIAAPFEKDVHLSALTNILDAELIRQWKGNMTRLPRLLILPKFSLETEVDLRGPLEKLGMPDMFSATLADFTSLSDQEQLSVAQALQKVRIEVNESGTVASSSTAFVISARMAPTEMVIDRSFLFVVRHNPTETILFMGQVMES
Experiment: cell-based or functional assay
Doc: threshold 200 nM (exclusive). Items with Chromogenic (IC50 in nM) mouse beneath it return true; others return false.

[in] Check if Chromogenic (IC50 in nM) mouse falls below 200 nM for Antibody 17 scFv (scFv) QVQLQQSGAEVKKPGSSVKVSCKASGGTFSSYAISWVRQAPGQGLEWMGGIIPTFGTANYAQKFQGRVTITADESTSTAYMELSGLRSEDTAVYYCAREKRQWLEGHFDYWGRGTPVTVSSDIQMTQSPSFLSASIGDRVTITCRASEGIYHELAWYQQKPGKAPKLLIYRASSLASGAPSRFSGSGSGTDFTLTISSLQPDDFATYYCQQYSNYPLTFGGGTKLEIK .
[out] true

[in] Check Antibody 04 scFv (scFv) QVRLQQSGAEVKKPGSSVKVSCKASGGTFSSYAISWVRQAPGQGLEWMGGIIPTFGTANYAQKFRGRVTITANESTSTAYMELSGLRSEDTAVYYCAREKRQWLEGRFDYWGRGTLVTVSSDIQMTQSPSFLSASIGDRITITCRASEGIYHSLAWYQQKPGKAPKLLIHRATSLASGTPSRFGGSGSGTDFALTISSLQPDDFATYYCQQYSNYPLTFGGGTKLEIK too.
[out] false
